# System: K-562 leukemia
# PROCEDURE_SUMMARY: NCI tumour cell line growth inhibition, 48 h
Below, each of the compounds is paired with its reported TGI value.
OUTCOME_MEASURE: TGI

1) CN(C)CC1CC/C(=C\c2ccc(Cl)c(Cl)c2)C1=O (stereo not drawn)    > 27.1 µM
2) O=C1CSC(c2c[nH]c3ccccc23)N1c1cccc(Cl)c1 (stereo not drawn)    > 100 µM
3) COc1cc(/C=C/C(=O)c2cccc(-n3cc(-c4ccccc4)[nH]c3=O)c2)cc(OC)c1OC    > 100 µM
4) CC(=O)c1ccc(Br)cc1NC1=CC(=O)c2ncccc2C1=O    10.1 µM
5) CN1CCN(Cc2ccc(NC(=O)c3cncc(C#Cc4cnc(N)c5ncccc45)c3)cc2C(F)(F)F)CC1    1.92 µM
6) COC1=C(C(c2cc(OC)c(OC)c(OC)c2)c2cc3c(cc2OC)OCO3)C(=O)OC1 (stereo not drawn)    > 100 µM
7) Cc1ccc(N)c(S)c1    65.1 µM
8) COc1ccc2c(-c3csc(-c4c[nH]c5ccc(Br)cc45)n3)c[nH]c2c1    > 100 µM
9) COc1ccc(C2COc3c(ccc(OC)c3OC)C2=O)cc1OC (stereo not drawn)    > 100 µM
10) COc1ccc2c(c1)[C@@H](NC(C)=O)CCc1cc(OC)c(OC)c(OC)c1-2    > 100 µM
11) O=C1C2C3CC4C5C3C1C5C1(SCCS1)C42 (stereo not drawn)    > 100 µM
12) CC1=C(O)C(=O)C=C2C1=CC=C1[C@@]2(C)CC[C@@]2(C)C3C[C@@H](C)C(=O)[C@@H](O)[C@]3(C)CC[C@]12C (stereo partly drawn)    5.17 µM
13) O=c1[nH]c(=S)[nH]cc1CN1CCOCC1    > 100 µM

====

# Tested on: A498 renal
# PROCEDURE_SUMMARY: NCI tumour cell line growth inhibition, 48 h
OUTCOME_MEASURE: TGI

1. C/C(=N/NC(=O)c1ccccc1S(N)(=O)=O)C(CN1CCCCC1)C(C1=C(O)C2C=CC=CC2OC1=O)c1ccccc1 (configuration not stated)    > 100 µM
2. O=C(CCc1nnc2s/c(=C\c3ccc([N+](=O)[O-])cc3)c(=O)n12)Nc1ccc(Cl)c(Cl)c1    > 100 µM
3. CC(C#N)(c1ccccc1)N(CCc1ccccc1)C(=O)Oc1ccccc1 (configuration not stated)    > 100 µM
4. O=S(=O)(NCCCNc1cc(-c2cn(-c3ccccc3)nc2-c2cccc(O)c2)ccn1)c1ccc(C(F)(F)F)cc1    2.64 µM
5. COc1cccc2c1nc(C(F)F)n2-c1nc(-c2ccc(NS(=O)(=O)CCN(C)C)cc2)nc(N2CCOCC2)n1    0.279 µM
6. NC1=C(O)c2cccc3cccc(c23)C1=O    > 100 µM
7. O=C1C2C3C4C1C1C2[C@H](OCc2ccccc2)C3C1[C@H]4OCc1ccccc1 (some centres not stated)    > 100 µM
8. COC(=O)c1c(O)c(C#N)c2[nH]c3ccccc3n2c1=O    > 100 µM
9. O=C1C=CC2(C=C1)O[C@H](COCc1ccccc1)[C@@H](COCc1ccccc1)O2    34.1 µM
10. Cc1cn2cc(-c3cccs3)nc2s1    > 100 µM
11. O=c1nc2n(-c3cccc(Cl)c3)c3ccc([N+](=O)[O-])cc3cc-2c(=O)[nH]1    > 25 µM
12. NC(N)=N/N=C\c1c(-c2cccc([N+](=O)[O-])c2)nc2sccn12    64.1 µM
13. Cc1ccc(N)c(S)c1    38.6 µM
14. Cc1nnc2n1N=C(c1cc(F)c(Cl)cc1Cl)/C(=C/c1ccc(-c3ccc([N+](=O)[O-])cc3)o1)S2    > 100 µM
15. CC(CN1NC12CCCC2)N1NC12CCCC2 (configuration not stated)    > 100 µM
16. CNC(=O)Oc1cc(C(C)C)ccc1Sc1ccc(C(C)C)cc1OC(=O)NC    25 µM
17. COC(=O)C(=O)C(C(=O)C(=O)Nc1ccc(Cl)c(Cl)c1)c1nc2ccc(C(=O)c3ccccc3)cc2[nH]c1=O (configuration not stated)    > 100 µM
